RUN DESCRIPTION: Antagonist activity against 1-alpha,25-dihydroxy vitamin D3-induced HL60 cell differentiation by NBT reduction method
pIC50: −log10 of the molar value.
REPORTED METRIC: pIC50

C=C1/C(=C\C=C2/CCC[C@]3(C)[C@@H]([C@H](C)C[C@@H]4OC(=O)C(=C)[C@@H]4CC(C)C)CC[C@@H]23)C[C@@H](O)[C@H](CCCO)[C@@H]1O : 8.03
C=C1/C(=C\C=C2/CCC[C@]3(C)[C@@H]([C@H](C)C[C@@H]4OC(=O)C(=C)[C@H]4CC(C)C)CC[C@@H]23)C[C@@H](O)[C@H](OCCCO)[C@@H]1O : 8.03
C=C1/C(=C\C=C2/CCC[C@]3(C)[C@@H]([C@H](C)C[C@@H]4OC(=O)C(=C)[C@@H]4CCCC)CC[C@@H]23)C[C@@H](O)[C@H](OCCCO)[C@@H]1O : 8.06
